Numbers sourced from patent US5352690A.

# Target Entity: [^3 H]-LTB4 binding to receptors on human neutrophils (Homo sapiens, UniProt Q15722)
# Sequence (Q15722 whole entry): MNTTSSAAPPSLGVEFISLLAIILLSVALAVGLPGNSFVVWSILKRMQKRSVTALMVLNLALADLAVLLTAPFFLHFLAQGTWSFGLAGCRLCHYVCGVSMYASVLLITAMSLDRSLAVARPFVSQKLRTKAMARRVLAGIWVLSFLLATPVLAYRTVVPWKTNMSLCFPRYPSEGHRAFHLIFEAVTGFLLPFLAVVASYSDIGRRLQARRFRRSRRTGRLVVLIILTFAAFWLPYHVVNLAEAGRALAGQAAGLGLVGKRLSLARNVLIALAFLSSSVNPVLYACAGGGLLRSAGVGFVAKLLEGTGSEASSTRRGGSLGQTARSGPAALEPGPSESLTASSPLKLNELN
# Protocol: biochemical
# Condition Label: [^3 H]-LTB4 2.65 nM (20 μl), 4° C., 10 minutes
Structures can show the parent of a compound that is named as a salt.

Molecule | IC50 / nM
CCCc1c(OCCCOc2cc(O)c(OC)cc2CC)ccc2c1OC(C(=O)O)CC2 (stereo not drawn) | 2.9
CCCc1c(OCCCOc2cc(O)c(OCC)cc2CC)ccc2c1OC(C(=O)O)CC2 (stereo not drawn) | 4.2
CCc1cc(Sc2ccccc2)c(O)cc1OCCCCCC(C)(C)c1nn[nH]n1 [disodium salt] | 885

---

# Target Entity: UniProt:H0VYV8
# Sequence (H0VYV8 1-348): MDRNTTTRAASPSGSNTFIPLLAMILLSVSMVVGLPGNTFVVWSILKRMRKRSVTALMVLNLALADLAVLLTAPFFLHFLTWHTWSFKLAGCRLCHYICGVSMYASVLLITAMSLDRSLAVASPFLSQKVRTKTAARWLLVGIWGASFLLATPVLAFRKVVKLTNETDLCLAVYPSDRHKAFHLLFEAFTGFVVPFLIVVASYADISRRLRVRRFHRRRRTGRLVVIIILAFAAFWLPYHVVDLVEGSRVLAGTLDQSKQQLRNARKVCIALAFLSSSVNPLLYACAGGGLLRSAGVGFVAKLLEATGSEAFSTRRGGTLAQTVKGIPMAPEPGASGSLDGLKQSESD
# Protocol: [^3 H]-LTB4 Radioligand Binding Assay in Guinea Pig Lung Membranes
# Condition Label: read-out: Binding Guinea Pig Lung pKi (converted)
Counter-ions that a name gives are not always drawn.

Compound | Units Of Measure | Ki
CCCCCOc1cc(CC)c(OCCCCCC(C)(C)c2nn[nH]n2)cc1O [sodium salt] | nM | 21.4
CCOc1cc(CC)c(OCCCCCC(C)(C)c2nn[nH]n2)cc1O [sodium salt] | nM | 12.3
CCCc1c(OCCCOc2cc(O)c(OCC)cc2CC)ccc2c1OC(C(=O)O)CC2 (stereo not shown) [Example 10] | nM | 1.29
CCc1cc(OCc2ccc(F)cc2)c(O)cc1OCCCCCC(C)(C)c1nn[nH]n1 [sodium salt] | nM | 110
CCc1cc(Sc2ccccc2)c(O)cc1OCCCCCC(C)(C)c1nn[nH]n1 [disodium salt] | nM | 219
CCc1cc(OC2CCCC2)c(O)cc1OCCCCCC(C)(C)c1nn[nH]n1 [sodium salt] | nM | 77.6
CCc1cc(OCCC(C)C)c(O)cc1OCCCCCC(C)(C)c1nn[nH]n1 [sodium salt] | nM | 74.1
CCc1cc(OC(C)C)c(O)cc1OCCCCCC(C)(C)c1nn[nH]n1 [sodium salt] | nM | 40.7
CCc1cc(OC)c(O)cc1OCCCCCC(C)(C)c1nn[nH]n1 [sodium salt] | nM | 22.9
CCCc1c(OCCCOc2cc(O)c(OC)cc2CC)ccc2c1OC(C(=O)O)CC2 (stereo not shown) [Example 9] | nM | 1.51
